# Assayed target: KRAS G12V (Homo sapiens (Human), UniProt P01116+P62937, G12V)
# Sequence (P01116 other isoform, or with tags, fused parts or gaps G12V): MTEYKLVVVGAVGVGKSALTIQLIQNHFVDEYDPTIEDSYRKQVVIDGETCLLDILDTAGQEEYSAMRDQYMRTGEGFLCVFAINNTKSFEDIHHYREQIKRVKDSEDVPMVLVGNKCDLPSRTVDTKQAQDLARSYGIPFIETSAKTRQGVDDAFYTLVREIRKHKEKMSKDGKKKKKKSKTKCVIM
# Sequence (P62937 whole entry): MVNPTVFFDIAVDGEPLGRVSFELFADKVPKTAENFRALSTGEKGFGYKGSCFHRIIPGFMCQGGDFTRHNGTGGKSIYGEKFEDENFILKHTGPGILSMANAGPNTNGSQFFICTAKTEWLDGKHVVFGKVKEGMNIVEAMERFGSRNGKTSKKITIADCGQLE
# Experiment: Ras-Raf disruption/FRET/MOA assay, KRAS G12V
# Assay type: biochemical
# Condition description: read-out: KRAS G12V FRET IC50
pIC50: −log10 of the molar value.
Metric name: pIC50

[[record]]
compound = "CCn1c(-c2cnccc2COC)c2c3cc(ccc31)-c1cccc(c1)C[C@H](NC(=O)[C@H](C(C)C)N(C)C(=O)CCN=C=Nc1ccc(N(C)C)cc1)C(=O)N1CCC[C@H](N1)C(=O)OCC(C)(C)C2"
recorded_result = "5.00 to 6.00"

[[record]]
compound = "CCn1c(-c2cnccc2COC)c2c3cc(ccc31)-c1cc(O)cc(c1)C[C@H](NC(=O)[C@@H](CN(C)C(=O)[C@H]1CN1)C(C)C)C(=O)N1CCC[C@H](N1)C(=O)OCC(C)(C)C2"
recorded_result = "5.00 to 6.00"

[[record]]
compound = "CCn1c(-c2cnccc2COC)c2c3cc(ccc31)-c1cccc(c1)C[C@H](NC(=O)[C@H](C(C)C)N1CC[C@@H](CN=C=NCCOC)C1)C(=O)N1CCC[C@H](N1)C(=O)OCC(C)(C)C2"
recorded_result = "5.00 to 6.00"

[[record]]
compound = "CCn1c(-c2cccnc2[C@H](C)OC)c2c3cc(ccc31)-c1cc(O)cc(c1)C[C@H](NC(=O)[C@H](C(C)C)N1CC[C@@]3(CCC(C(=O)[C@@H]4N[C@@H]4C4CC4)C3)C1=O)C(=O)N1CCC[C@H](N1)C(=O)OCC(C)(C)C2 (stereo partly drawn)"
recorded_result = "6.00 to 7.00"

[[record]]
compound = "CCn1c(-c2cccnc2[C@H](C)OC)c2c3cc(ccc31)-c1cccc(c1)C[C@H](NC(=O)[C@H](C(C)C)N(C)C(=O)[C@H]1CC[C@H](N=C=NCc3ccccc3OC)C1)C(=O)N1CCC[C@H](N1)C(=O)OCC(C)(C)C2"
recorded_result = "5.00 to 6.00"

[[record]]
compound = "CCn1c(-c2cnccc2COC)c2c3cc(ccc31)-c1cc(O)cc(c1)C[C@H](NC(=O)[C@H](C(C)C)N(C)C(=O)[C@H]1CCN(C(=O)[C@H]3CN3)C1)C(=O)N1CCC[C@H](N1)C(=O)OCC(C)(C)C2"
recorded_result = "7.00 to 8.00"

[[record]]
compound = "CCn1c(-c2cnccc2COC)c2c3cc(ccc31)-c1cc(O)cc(c1)C[C@H](NC(=O)[C@H](C(C)C)N(C)C(=O)N1CCCN(C(=O)[C@H]3CN3)CC1)C(=O)N1CCC[C@H](N1)C(=O)OCC(C)(C)C2"
recorded_result = "7.00 to 8.00"

[[record]]
compound = "CCn1c(-c2cccnc2[C@H](C)OC)c2c3cc(ccc31)-c1cc(O)cc(c1)C[C@H](NC(=O)[C@H](C(C)C)N1CCC3(CC(C(=O)[C@H]4CN4)C3)C1=O)C(=O)N1CCC[C@H](N1)C(=O)OCC(C)(C)C2 (stereo partly drawn)"
recorded_result = "6.00 to 7.00"

[[record]]
compound = "CCn1c(-c2cnccc2COC)c2c3cc(ccc31)-c1cccc(c1)C[C@H](NC(=O)[C@H](C(C)C)N(C)C(=O)CCN=C=NCc1c(OC)cccc1OC)C(=O)N1CCC[C@H](N1)C(=O)OCC(C)(C)C2"
recorded_result = "5.00 to 6.00"


The reported measurements were obtained from patent US20250195521A1.
